Where do the numbers come from? From ChEMBL document CHEMBL1806465.

Could you please report measured solubility for the items listed next?
# Procedure Text: Solubility of the compound in DMSO
# Type: physicochemical
The reply should be a number in µM, with the unit left off.

Enquiry: Query solubility for `Clc1ccc(/N=N/Nc2ccc(Cl)c(Cl)c2)cc1Cl`
Return: 74.6

Enquiry: Query solubility for `Clc1cc(Cl)c(/N=N/Nc2cc(Cl)c(Cl)cc2Cl)cc1Cl`
Return: 41.3

Enquiry: Query solubility for `Clc1ccc(Cl)c(/N=N/Nc2cc(Cl)ccc2Cl)c1`
Return: 37.3

Enquiry: Query solubility for `COc1cc(/C=C/C(=O)N(/N=N/c2ccc(Cl)c(C(F)(F)F)c2)c2ccc(Cl)c(C(F)(F)F)c2)ccc1OC(C)=O`
Return: 16.8

Enquiry: Query solubility for `COc1ccc(/C=C/C(=O)N(/N=N/c2cc(C(F)(F)F)ccc2Cl)c2cc(C(F)(F)F)ccc2Cl)cc1OC`
Return: 28.1

Enquiry: Query solubility for `Fc1cccc(/N=N/Nc2cccc(F)c2)c1`
Return: 214

Enquiry: Query solubility for `O=[N+]([O-])c1ccc(N=NNc2ccc([N+](=O)[O-])cc2)cc1`
Return: 43.5

Enquiry: Query solubility for `COc1cc(/C=C/C(=O)N(/N=N/c2cc(C(F)(F)F)ccc2Cl)c2cc(C(F)(F)F)ccc2Cl)cc(OC)c1`
Return: 24.1

Enquiry: Query solubility for `FC(F)(F)c1cc(Cl)ccc1/N=N/Nc1ccc(Cl)cc1C(F)(F)F`
Return: 62.2

Enquiry: Query solubility for `COc1cc(/C=C/C(=O)N(/N=N/c2cc(C(F)(F)F)ccc2Cl)c2cc(C(F)(F)F)ccc2Cl)ccc1OC(C)=O`
Return: 40.3

Enquiry: Query solubility for `COc1ccc(/C=C/C(=O)N(/N=N/c2cc(C(F)(F)F)ccc2Cl)c2cc(C(F)(F)F)ccc2Cl)c(OC)c1`
Return: 84.4

Enquiry: Query solubility for `CC(=O)N(/N=N/c1cccc(F)c1)c1cccc(F)c1`
Return: 182

Enquiry: Query solubility for `Fc1ccc(/N=N/Nc2ccc(F)cc2F)c(F)c1`
Return: 186

Enquiry: Query solubility for `CC(=O)Oc1ccc(/C=C/C(=O)N(/N=N/c2cccc(F)c2)c2cccc(F)c2)cc1OC(C)=O`
Return: 52.1

Enquiry: Query solubility for `Fc1ccc(/N=N/Nc2ccc(F)c(F)c2)cc1F`
Return: 186
